- target: T1, TMEV 2A (Theiler's murine encephalomyelitis …, UniProt P08545 923-1055)
- T1 sequence: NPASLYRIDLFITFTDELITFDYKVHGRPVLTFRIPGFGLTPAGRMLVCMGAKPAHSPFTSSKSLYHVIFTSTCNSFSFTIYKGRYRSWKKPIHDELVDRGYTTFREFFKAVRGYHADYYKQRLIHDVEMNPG
- test method notes: MST; ~140 mM NaCl; EMSA: 10 mM Tris pH 7.4, ~140 mM NaCl, 2 mM Mg acetate, 1 mM DTT, 5% glycerol, tRNA, 50 nM RNA, 37 C 20 min; MST: buffer stated as 1x of 20 mM Tris pH 7.4/80 mM NaCl/4 mM Mg acetate/2 mM DTT (2x), ~140 mM NaCl final, 5 nM RNA, 25 C; ITC: 50 mM Tris pH 7.4, 400 mM NaCl, 25 C
- conditions: protein: recombinant; tags: GST cleaved (3C protease); N-terminal GPLGS remnant; label: 5' Cy5 (EMSA, MST); stem-loop/pseudoknot-like
attribute measured: Kd

{"columns": ["binder", "Kd"],
 "data": [
  ["CCACAAGGUGCGGUGCUAACUAAAUCCCUAGCACCCCAGGCAGGAA (structured_RNA) [TMEV 1]", "484 nM"]
]}

// next item, Kd requested
Asked: Which value of Kd has been reported for GGGUUUUUCAGCCACAAGGUGCGGUGCUAACUAAAUCCCUAGCACCCC (structured_RNA) [TMEV 3] in the records?
Given back: 495 nM
